target-system: Sodium-dependent serotonin transporter (Homo sapiens)
What pIC50 was measured for each of the following?
One number for each entry, as −log10 of the molar value.

structure: O=S1(=O)N(CC[C@@H]2CNCCO2)c2ccccc2N1c1ccccc1F
pIC50: 5.19

structure: CNC[C@@H](CCN1c2ccccc2N(c2ccccc2)S1(=O)=O)OC
pIC50: 5.29

Continue with the compound presented below.
Ask: Quote pIC50 with test system Sodium-dependent serotonin transporter (Homo sapiens) for O=S1(=O)N(CC[C@H]2CNCCO2)c2ccccc2N1c1ccccc1
Reply: 5.99

###

assay-procedure: Cmax in rat at 10 mg/kg, po
Format: ADME, organism-based
Set-up: dose 10 mg/kg, route oral
condition-parameters: in vivo
quantity-measured: Cmax (ng/mL)
Numbers only, in ng/mL.

Ask: Kindly indicate its recorded Cmax. Item: O=S1(=O)N(CC[C@@H]2CNCCO2)c2ccccc2N1c1ccccc1F
Reply: 373

###

assay-procedure: Tmax in rat at 10 mg/kg, po
Format: ADME, organism-based
Design: dose 10 mg/kg, route oral
condition-parameters: in vivo
quantity-measured: Tmax (h)
Give bare numbers, in h.

Ask: Return Tmax for the following molecule: O=S1(=O)N(CC[C@@H]2CNCCO2)c2ccccc2N1c1ccccc1F
Reply: 1

###

target-system: Sodium-dependent serotonin transporter (Homo sapiens)
assay-procedure: Inhibition of human SERT expressed in JAR cells assessed as serotonin uptake at 6 uM
Assay type: cell-based
Sequence (P31645 whole entry, looked up): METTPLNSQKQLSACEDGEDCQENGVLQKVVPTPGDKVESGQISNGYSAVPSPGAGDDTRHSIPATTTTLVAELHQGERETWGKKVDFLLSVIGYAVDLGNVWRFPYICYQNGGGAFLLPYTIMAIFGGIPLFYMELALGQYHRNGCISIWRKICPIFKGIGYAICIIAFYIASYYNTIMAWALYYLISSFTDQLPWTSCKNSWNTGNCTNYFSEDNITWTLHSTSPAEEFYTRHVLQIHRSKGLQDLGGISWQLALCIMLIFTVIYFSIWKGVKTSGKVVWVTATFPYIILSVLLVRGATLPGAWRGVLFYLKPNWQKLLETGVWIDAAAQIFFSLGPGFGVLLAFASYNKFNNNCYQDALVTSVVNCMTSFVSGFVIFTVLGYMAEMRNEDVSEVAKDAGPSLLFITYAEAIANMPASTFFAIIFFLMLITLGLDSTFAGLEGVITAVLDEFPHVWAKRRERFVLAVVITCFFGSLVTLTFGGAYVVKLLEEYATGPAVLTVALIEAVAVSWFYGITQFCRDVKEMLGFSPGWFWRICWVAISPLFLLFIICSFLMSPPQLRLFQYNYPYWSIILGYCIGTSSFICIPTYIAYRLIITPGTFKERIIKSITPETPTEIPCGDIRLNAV
quantity-measured: inhibition

Example entries begin here.
compound: O=S1(=O)N(CC[C@@H]2CNCCO2)c2ccccc2N1c1ccccc1
inhibition: 55%
//
compound: CNC[C@H](O)CCN1c2ccccc2N(c2ccccc2F)S1(=O)=O
inhibition: 28%
//
compound: O=S1(=O)N(CC[C@H]2CNCCO2)c2ccccc2N1c1ccccc1
inhibition: 68%
//
compound: CNC[C@H](CCN1c2ccccc2N(c2ccccc2)S1(=O)=O)OC
inhibition: 52%

Next item in the queue.
Ask: Please supply the value of reported inhibition for the item O=S1(=O)N(CC2CNCCO2)c2ccccc2N1c1ccccc1 (racemic)
Reply: 0%

###

assay-procedure: AUC (0 to infinity) in rat at 2 mg/kg, iv
Type: ADME, organism-based
Parameters: time infinity, dose 2 mg/kg, route intravenous
condition-parameters: plasma
quantity-measured: AUC(0-inf) (ng·h/mL)
Give bare numbers, in ng·h/mL.

Ask: Give the reported AUC(0-inf) for this molecule. O=S1(=O)N(CC[C@@H]2CNCCO2)c2ccccc2N1c1ccccc1F
Reply: 958

###

The next entries give measured pIC50 for Sodium-dependent serotonin transporter (Homo sapiens, UniProt P31645).
Give bare numbers, as −log10 of the molar value.

# example entries with known answers
compound: O=S1(=O)N(CC[C@@H]2CNCCO2)c2ccccc2N1c1ccccc1
quantity-measured: pIC50
reported-value: 5.17

compound: O=S1(=O)N(CC[C@@H]2CNCCO2)c2ccccc2N1c1c(F)cc(F)cc1F
quantity-measured: pIC50
reported-value: 5.85

compound: O=S1(=O)N(CCC2CNCCO2)c2cc(F)ccc2N1c1ccccc1F (stereo not given)
quantity-measured: pIC50
reported-value: 5.08

Consider the following items and state reported pIC50 for each.
1. O=S1(=O)N(CCC2CCCNC2)c2ccccc2N1c1ccccc1 (racemic)
2. O=S1(=O)N(CCC2CNCCO2)c2c(F)cccc2N1c1ccccc1F (stereo not given)
3. O=S1(=O)N(CCC2CNCCO2)c2ccccc2N1c1ccccc1 (racemic)
4. O=S1(=O)N(CCC2CNCCO2)c2cccc(F)c2N1c1ccccc1F (stereo not given)

Reply:
[5.53, 6.00, 5.75, 5.24]

# per-item lookup of pIC50; items listed below
1. O=S1(=O)N(CCC2CNCCO2)c2ccc(F)cc2N1c1ccccc1F (stereo not given)
2. COc1cccc(N2c3ccccc3N(CC[C@@H]3CNCCO3)S2(=O)=O)c1
3. O=S1(=O)N(CC[C@@H]2CNCCO2)c2ccccc2N1c1ccc(F)cc1F

Reply:
6.09
6.13
5.38

Reference for the values: ChEMBL document CHEMBL1828571
